Recorded measurements of pIC50, one per entry
- measured target: CDK2/Cyclin E1 (Homo sapiens)
- protocol summary: CDK2/Cyclin E1 Biochemical Assay (TR-FRET), 0.060 mM ATP
- settings: 0.15 μM Rb (Ser780)-biotin substrate, pH7.0, 60 min preincubation, 120 min reaction, room temperature
Scale for pIC50: -log10 of concentration given in mol/L; no unit attached.

Before answering, review these 2 worked examples.
1. CC1(NC(=O)O[C@H]2CC[C@@H](c3cc(Nc4ccc5c(c4F)CS(=O)(=O)N5CC(F)(F)F)n[nH]3)C2)CC1 (single isomer, unassigned) [Example 264a]	8.89
2. CC[C@H](C)NC(=O)O[C@H]1CC[C@@H](c2cc(Nc3ccc4c(c3F)C(C)NS4(=O)=O)n[nH]2)C1 (single isomer, unassigned) [Example 54b]	8.57

Kindly consider the entry below.
Input CC[C@H](C)NC(=O)O[C@H]1CC[C@@H](c2cc(Nc3ccc4c(c3F)CNS4(=O)=O)n[nH]2)C1 (single isomer, unassigned) [Example 139b] . Output pIC50: 9.05

====

Recorded measurements of pIC50, one per entry
- measured target: CDK1/Cyclin B1 (Homo sapiens)
- Sequence (P06493 whole entry): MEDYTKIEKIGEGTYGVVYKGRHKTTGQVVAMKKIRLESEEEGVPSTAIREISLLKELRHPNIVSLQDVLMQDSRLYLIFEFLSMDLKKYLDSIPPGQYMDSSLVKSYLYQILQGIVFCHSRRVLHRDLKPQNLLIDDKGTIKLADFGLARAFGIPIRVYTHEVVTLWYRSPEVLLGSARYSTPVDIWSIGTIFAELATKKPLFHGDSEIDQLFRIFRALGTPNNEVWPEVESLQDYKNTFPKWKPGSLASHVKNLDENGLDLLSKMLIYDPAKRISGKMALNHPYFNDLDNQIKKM
- Sequence (P14635 whole entry partner): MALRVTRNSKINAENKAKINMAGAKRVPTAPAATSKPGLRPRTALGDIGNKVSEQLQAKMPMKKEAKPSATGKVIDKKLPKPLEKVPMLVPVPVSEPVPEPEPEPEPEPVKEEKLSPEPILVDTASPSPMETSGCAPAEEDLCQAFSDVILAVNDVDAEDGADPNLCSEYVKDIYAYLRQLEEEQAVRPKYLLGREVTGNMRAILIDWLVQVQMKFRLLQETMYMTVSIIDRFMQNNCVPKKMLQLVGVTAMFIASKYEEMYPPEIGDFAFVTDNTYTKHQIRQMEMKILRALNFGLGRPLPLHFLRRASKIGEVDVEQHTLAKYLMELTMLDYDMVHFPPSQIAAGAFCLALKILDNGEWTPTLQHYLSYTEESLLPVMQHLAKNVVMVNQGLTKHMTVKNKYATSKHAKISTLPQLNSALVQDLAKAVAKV
- protocol summary: CDK1/Cyclin B1 Biochemical Assay (TR-FRET), 0.015 mM ATP
- settings: 0.15 μM Rb (Ser780)-biotin substrate, pH7.0, 60 min preincubation, 120 min reaction, room temperature
Scale for pIC50: -log10 of concentration given in mol/L; no unit attached.

Before answering, review these 5 worked examples.
1. CC1NS(=O)(=O)c2ccc(Nc3cc([C@@H]4CC[C@H](OC(=O)NC5(C)CC5)C4)[nH]n3)c(F)c21 (single isomer, unassigned) [Example 52a]	6.56
2. CCCNC(=O)O[C@H]1CC[C@@H](c2cc(Nc3ccc4c(c3F)C(C)NS4(=O)=O)n[nH]2)C1 (single isomer, unassigned) [Example 53d]	6.77
3. CC1(NC(=O)O[C@H]2CC[C@@H](c3cc(Nc4ccc5c(c4)CCS(=O)(=O)N5)n[nH]3)C2)CC1 (single isomer, unassigned) [Example 249a]	7.51
4. CC1(NC(=O)O[C@H]2CC[C@@H](c3cc(Nc4ccc5c(c4F)CS(=O)(=O)N5C4CC4)n[nH]3)C2)COC1 (relative stereo)	6.88
5. CC(C)NC(=O)O[C@H]1CC[C@@H](c2cc(Nc3ccc4c(c3)S(=O)(=O)NC4(C)C)n[nH]2)C1 (relative stereo)	6.74

Kindly consider the entry below.
Input CC1(NC(=O)O[C@H]2CC[C@@H](c3cc(Nc4ccc5c(c4F)CN(CCO)S5(=O)=O)n[nH]3)C2)CC1 (racemic) [Example 128] . Output pIC50: 7.01

====

- measured target: CDK2/Cyclin E1 (Homo sapiens)
- protocol summary: CDK2/Cyclin E1 Biochemical Assay (TR-FRET), 0.060 mM ATP
- settings: 0.15 μM Rb (Ser780)-biotin substrate, pH7.0, 60 min preincubation, 120 min reaction, room temperature
Recorded measurements of pIC50, one per entry
Scale for pIC50: -log10 of concentration given in mol/L; no unit attached.

Before answering, review these 3 worked examples.
1. Cc1cc(Nc2cc([C@@H]3CC[C@H](OC(=O)NC(C)C)C3)[nH]n2)cc2c1N(C)S(=O)(=O)C2 (relative stereo)	7.36
2. O=C(O[C@H]1CC[C@@H](c2cc(Nc3ccc4c(c3)CNS4(=O)=O)n[nH]2)C1)N1CCCC1 (relative stereo)	8.19
3. CN1c2ccc(Nc3cc([C@@H]4CC[C@H](OC(=O)NC5(CO)CC5)C4)[nH]n3)c(F)c2CS1(=O)=O (relative stereo)	7.70

The recorded pIC50 with CDK2/Cyclin E1 (Homo sapiens) for COc1c(Nc2cc([C@@H]3CC[C@H](OC(=O)NC(C)C)C3)[nH]n2)ccc2c1S(=O)(=O)NC2(C)C (relative stereo) was 7.24

The recorded pIC50 with CDK2/Cyclin E1 (Homo sapiens) for CC[C@H](C)NC(=O)O[C@H]1CC[C@@H](c2cc(Nc3ccc4c(c3F)CN(C3CC3)S4(=O)=O)n[nH]2)C1 (single isomer, unassigned) [Example 117b] was 8.74

The recorded pIC50 with CDK2/Cyclin E1 (Homo sapiens) for CC1(NC(=O)O[C@H]2CC[C@@H](c3cc(Nc4ccc5c(c4F)CN(CCO)S5(=O)=O)n[nH]3)C2)CC1 (single isomer, unassigned) [Example 128a] was 8.57

The recorded pIC50 with CDK2/Cyclin E1 (Homo sapiens) for CC(C)NC(=O)O[C@H]1CC[C@@H](c2cc(Nc3ccc4c(c3F)CS(=O)(=O)N4)n[nH]2)C1 (single isomer, unassigned) [Example 251b] was 9.00

The recorded pIC50 with CDK2/Cyclin E1 (Homo sapiens) for CC(C)NC(=O)O[C@H]1CC[C@@H](c2cc(Nc3cc(F)c4c(c3)CNS4(=O)=O)n[nH]2)C1 (relative stereo) was 8.66

The recorded pIC50 with CDK2/Cyclin E1 (Homo sapiens) for CC(NC(=O)O[C@H]1CC[C@@H](c2cc(Nc3ccc4c(c3F)CN(C)S4(=O)=O)n[nH]2)C1)C1COC1 (relative stereo) was 7.38

The recorded pIC50 with CDK2/Cyclin E1 (Homo sapiens) for CC(C)NC(=O)O[C@H]1CC[C@@H](c2cc(Nc3ccc4c(c3)CS(=O)(=O)N4C3CC3)n[nH]2)C1 (relative stereo) was 8.27

The recorded pIC50 with CDK2/Cyclin E1 (Homo sapiens) for CCCNC(=O)O[C@H]1CC[C@@H](c2cc(Nc3ccc4c(c3F)S(=O)(=O)NC4)n[nH]2)C1 (single isomer, unassigned) [Example 189a] was 8.00

The recorded pIC50 with CDK2/Cyclin E1 (Homo sapiens) for CC1(NC(=O)O[C@H]2CC[C@@H](c3cc(Nc4ccc5c(c4F)CNS5(=O)=O)n[nH]3)C2)CCOC1 (single isomer, unassigned) [Example 162b] was 8.96

The recorded pIC50 with CDK2/Cyclin E1 (Homo sapiens) for O=C(NCC1CC1)O[C@H]1CC[C@@H](c2cc(Nc3ccc4c(c3F)CNS4(=O)=O)n[nH]2)C1 (relative stereo) was 8.14

====

- measured target: CDK1/Cyclin B1 (Homo sapiens)
- protocol summary: CDK1/Cyclin B1 Biochemical Assay (TR-FRET), 0.015 mM ATP
- settings: 0.15 μM Rb (Ser780)-biotin substrate, pH7.0, 60 min preincubation, 120 min reaction, room temperature
measurement name: pIC50
Scale for pIC50: -log10 of concentration given in mol/L; no unit attached.

1. CC(C)NC(=O)O[C@H]1CC[C@@H](c2cc(Nc3cc4c(cc3Cl)S(=O)(=O)NC4)n[nH]2)C1 (relative stereo)	6.02

Input C[C@]1(O)CC[C@@H](NC(=O)O[C@H]2CC[C@@H](c3cc(Nc4ccc5c(c4F)CNS5(=O)=O)n[nH]3)C2)CC1 (relative stereo) . Output pIC50: 6.52

Input CC[C@H](C)NC(=O)O[C@H]1CC[C@@H](c2cc(Nc3ccc4c(c3F)CS(=O)(=O)N4)n[nH]2)C1 (single isomer, unassigned) [Example 383b] . Output pIC50: 7.82

Input CC(C)NC(=O)O[C@H]1CC[C@@H](c2cc(Nc3ccc4c(c3F)CN(C3CCCN(C)C3)S4(=O)=O)n[nH]2)C1 (relative stereo) . Output pIC50: 6.08

Input CC(C)NC(=O)O[C@H]1CC[C@@H](c2cc(Nc3ccc4c(c3F)CS(=O)(=O)N4C3CC3)n[nH]2)C1 (single isomer, unassigned) [Example 275b] . Output pIC50: 6.80

Input CC1(NC(=O)O[C@H]2CC[C@@H](c3cc(Nc4ccc5c(c4)CS(=O)(=O)N5)n[nH]3)C2)CCOCC1 (relative stereo) . Output pIC50: 7.28

====

- measured target: CDK2/Cyclin E1 (Homo sapiens)
- protocol summary: CDK2/Cyclin E1 Biochemical Assay (TR-FRET), 0.060 mM ATP
- settings: 0.15 μM Rb (Ser780)-biotin substrate, pH7.0, 60 min preincubation, 120 min reaction, room temperature
Recorded measurements of IC50, one per entry

1) CCCNC(=O)O[C@H]1C[C@@H](c2cc(Nc3cc4c(cc3F)S(=O)(=O)NC4)n[nH]2)C1	5.6 nM
2) COCC(C)(C)NC(=O)O[C@H]1CC[C@@H](c2cc(Nc3ccc4c(c3)CS(=O)(=O)N4)n[nH]2)C1 (relative stereo)	1.1 nM
3) CC(C)NC(=O)O[C@H]1CC[C@@H](c2cc(Nc3ccc4c(c3F)CN(CCCO)S4(=O)=O)n[nH]2)C1 (relative stereo)	3.6 nM
4) [2H]C([2H])([2H])N1Cc2c(ccc(Nc3cc([C@@H]4CC[C@H](OC(=O)N[C@@H](C)CC)C4)[nH]n3)c2F)S1(=O)=O (relative stereo)	1.4 nM
5) CC(C)NC(=O)O[C@H]1CC[C@@H](c2cc(Nc3ccc4c(c3)CS(=O)(=O)N4CCO)n[nH]2)C1 (single isomer, unassigned) [Example 219a]	5.4 nM

Kindly consider the entry below.
Input CC1NS(=O)(=O)c2ccc(Nc3cc([C@@H]4CC[C@H](OC(=O)NC5(C)CC5)C4)[nH]n3)c(F)c21 (single isomer, unassigned) [Example 52a] . Output IC50: 3.5 nM
